# pKi listing for each entry below
target.system: full length human recombinant glucocorticoid receptor (Homo sapiens, UniProt P04150)
Construct: partially purified full length human recombinant glucocorticoid receptor; purchased Panvera/Invitrogen PV4302
protocol.details: Glucocorticoid Receptor Binding Assay (fluorescence polarization competitor assay, Fluormone GS Far Red tracer)
On this scale, pKi is minus log10 of a concentration expressed in M (mol/L).

Observe how each entry below is paired with its result.
>>> measured("COC(=O)c1ccc(OCc2ccc([C@@H](C)[C@@](O)(c3ccnc(Cl)c3)C(F)(F)F)c(Cl)c2)nn1 (stereo in doubt)")
7.97
>>> measured("Cc1cnc([C@](O)([C@H](C)c2ccc(OCc3ccc(C(C)C(=O)O)cc3)cc2Cl)C(F)(F)F)cn1 (stereo in doubt)")
6.96
>>> measured("COC(=O)Cc1ccc(COc2ccc([C@@H](C)[C@@](O)(c3ccnc(Cl)c3)C(F)(F)F)c(Cl)c2)cc1 (relative stereo)")
7.88

Which pKi value belongs to C[C@H](c1ccc(-c2ccc(C(=O)O)c(F)c2)cc1Cl)[C@@](O)(c1cnc2ccccc2c1)C(F)(F)F (stereo in doubt) ?
8.15

Likewise for Cc1cc([C@@](O)([C@@H](C)c2ccc(Oc3ncc(C(=O)O)cn3)cc2Cl)C(F)(F)F)cn(C)c1=O (stereo in doubt) ?
8.02

Likewise for Cc1cc(C(O)(C(C)c2ccc(/C=C/c3ccc(C(=O)O)cc3)cc2Cl)C(F)(F)F)ccn1 (centres unmarked) ?
8.36

Likewise for COC(=O)c1ccc(Oc2ccc(C(C)C(O)(c3ccnc(C)c3)C(F)(F)F)c(Cl)c2)nn1 (centres unmarked) ?
7.06

----------
# log10 Ki listing for each entry below
target.system: full length human recombinant glucocorticoid receptor (Homo sapiens)
Construct: partially purified full length human recombinant glucocorticoid receptor; purchased Panvera/Invitrogen PV4302
Sequence (P04150 1-777): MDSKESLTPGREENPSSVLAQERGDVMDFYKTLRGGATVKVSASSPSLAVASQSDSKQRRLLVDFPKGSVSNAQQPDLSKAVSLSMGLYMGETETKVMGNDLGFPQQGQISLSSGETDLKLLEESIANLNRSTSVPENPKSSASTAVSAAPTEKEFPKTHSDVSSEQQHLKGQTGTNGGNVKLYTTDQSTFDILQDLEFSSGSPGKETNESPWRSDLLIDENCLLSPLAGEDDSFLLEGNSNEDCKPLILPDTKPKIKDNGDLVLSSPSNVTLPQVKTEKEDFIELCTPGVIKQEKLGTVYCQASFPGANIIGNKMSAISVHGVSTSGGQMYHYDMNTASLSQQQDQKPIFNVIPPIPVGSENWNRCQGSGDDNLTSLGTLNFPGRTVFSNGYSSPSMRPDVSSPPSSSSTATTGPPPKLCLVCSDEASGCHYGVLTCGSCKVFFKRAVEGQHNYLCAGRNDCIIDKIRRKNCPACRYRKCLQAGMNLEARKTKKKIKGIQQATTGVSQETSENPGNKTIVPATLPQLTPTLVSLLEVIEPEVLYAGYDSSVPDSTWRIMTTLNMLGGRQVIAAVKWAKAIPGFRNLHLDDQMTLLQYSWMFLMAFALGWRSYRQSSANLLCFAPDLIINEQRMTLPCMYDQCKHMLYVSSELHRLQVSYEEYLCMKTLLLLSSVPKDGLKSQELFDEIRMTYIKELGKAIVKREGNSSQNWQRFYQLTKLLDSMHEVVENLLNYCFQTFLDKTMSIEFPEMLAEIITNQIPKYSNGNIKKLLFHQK
protocol.details: Glucocorticoid Receptor Binding Assay (fluorescence polarization competitor assay, Fluormone GS Far Red tracer)
Use the decimal logarithm of Ki (nM).

Observe how each entry below is paired with its result.
>>> measured("COC(=O)Cc1ccc(COc2ccc([C@@H](C)[C@@](O)(c3cnc(C)cn3)C(F)(F)F)c(Cl)c2)cc1 (racemic) [Example 11]")
1.92
>>> measured("C[C@@H](c1ccc(OCc2ccc(C(=O)O)cc2)cc1Cl)[C@](O)(c1cnc2ccccc2c1)C(F)(F)F (stereo in doubt) [Example 141]")
0.18
>>> measured("COC(=O)c1ccc(Oc2ccc([C@@H](C)[C@@](O)(c3ccc(=O)n(C)c3)C(F)(F)F)c(Cl)c2Cl)cc1F (stereo in doubt) [Example 199]")
0.41

Which log10 Ki value belongs to C[C@H](c1ccc(-c2ccc(C(=O)O)c(F)c2)cc1Cl)[C@@](O)(c1ccnc(Cl)c1)C(F)(F)F (stereo in doubt) [Example 54] ?
1.47

Likewise for C[C@H](c1ccc(Oc2ccc(C(=O)O)cc2F)cc1Cl)[C@@](O)(c1ccc(=O)n(C)c1)C(F)(F)F (relative stereo) [Example 156] ?
-0.05

Likewise for Cc1cc(C(O)(C(C)c2ccc(Oc3cccc(C(=O)O)c3)cc2Cl)C(F)(F)F)ccn1 (centres unmarked) [Example 59] ?
1.05

Likewise for C[C@@H](c1ccc(-c2ccc(CC(=O)O)cc2)cc1Cl)[C@](O)(c1ccc(=O)n(C)c1)C(F)(F)F (relative stereo) [Example 171] ?
1.90

Likewise for CCOC(=O)COc1cc(Oc2ccc([C@@H](C)[C@@](O)(c3ccc(=O)n(C)c3)C(F)(F)F)c(Cl)c2)ccc1F (stereo in doubt) [Example 161] ?
0.49
